# assayed target: T1, SpPot1;Tpz1-1-234 (Schizosaccharomyces …, UniProt O13988;O14246 1-555;1-234, |)
# T1 sequence 1: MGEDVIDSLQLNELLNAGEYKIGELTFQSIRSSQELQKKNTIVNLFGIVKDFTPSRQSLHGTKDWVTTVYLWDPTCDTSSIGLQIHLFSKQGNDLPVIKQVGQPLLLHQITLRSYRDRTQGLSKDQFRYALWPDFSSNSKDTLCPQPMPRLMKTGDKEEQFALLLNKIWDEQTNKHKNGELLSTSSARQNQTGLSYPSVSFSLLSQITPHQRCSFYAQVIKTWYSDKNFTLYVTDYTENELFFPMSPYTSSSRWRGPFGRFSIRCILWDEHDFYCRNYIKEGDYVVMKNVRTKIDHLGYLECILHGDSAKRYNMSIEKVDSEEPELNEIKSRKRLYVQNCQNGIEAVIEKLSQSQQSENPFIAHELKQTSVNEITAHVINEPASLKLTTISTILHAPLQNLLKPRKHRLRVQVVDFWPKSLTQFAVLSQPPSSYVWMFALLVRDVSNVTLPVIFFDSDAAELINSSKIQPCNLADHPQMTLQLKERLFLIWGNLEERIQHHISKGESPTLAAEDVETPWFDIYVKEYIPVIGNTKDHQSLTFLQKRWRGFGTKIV
# T1 sequence 2: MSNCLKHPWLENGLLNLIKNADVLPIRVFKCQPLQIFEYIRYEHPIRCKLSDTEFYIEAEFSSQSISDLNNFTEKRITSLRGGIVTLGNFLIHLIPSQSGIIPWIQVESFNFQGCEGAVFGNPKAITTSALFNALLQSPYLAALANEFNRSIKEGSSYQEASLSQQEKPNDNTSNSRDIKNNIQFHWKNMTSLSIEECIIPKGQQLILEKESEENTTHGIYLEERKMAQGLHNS
# measurement description: filter binding
Please go through the items and note down their Kd.
Numbers only, in nM.

Please give Kd, item by item, for the list that follows.
1. GGTTACGGTTAC (ssDNA) [d12]
2. GGTTACGGTTAC (mixed, ribonucleotides at 6 and 12) [r6r12]
3. GGTTACGGTTAC (mixed, ribonucleotides at 5 and 11) [r5r11]
4. GGTTACGGTTAC (mixed, ribonucleotides at 1 and 7) [r1r7]
5. GGTTACGGTTAC (mixed, ribonucleotides at 2 and 8) [r2r8]

Outgoing:
1. 0.22
2. 0.3
3. 0.31
4. 0.31
5. 0.19
